Where these numbers come from: patent US20130129667A1

List of Total number of Polistes captured values.
- System: Polistes
- PROCEDURE SUMMARY: Field trap catch of Polistes (selectivity)
- Type: in vivo
- REPORTED CONDITIONS: Lo Orozco; 21 days; five containers per attractant

COMPOUND	Total number of Polistes captured
CCCCCC(=O)CC	0
CCCCCCC(C)=O	1
CCCC/C=C/C=O [Trans-2-heptenal]	0

Report Total number of Polistes captured on Polistes for this entry: CCCCC/C=C/CO [Trans-2-octen-1-ol]
1
